Where do these numbers come from? They come from the supplement of paper PMC9170038.

tested on: MS2 coat protein; assay: apparent KD of MS2 coat protein; designed switch direction (-1 OFF switch, 1 ON switch): 1; higher = weaker reporter binding; settings: Eterna round: R95; input ligand: FMN 200 uM

| residueSequence | apparent KD of MS2 coat protein (nM) |
| --- | --- |
| GAGUGAUGGGUUAGUAACUGCUGGGAAGGACAUGAGGAUCACCCAUGUGAGUAGCGAGCUUGUGCUCGUCUUAUUAG [JR_SHM208A_Sub023] (puzzle: Sensor for hsa-mir-208a) | 207 |
| UCAAGCGUUUGGCUCGUCUUAUGUUUGGUACAUGAGGAUCACCCAUGUUAGGGACGAUCCAGUUAGAUGGAAUUUUG [JR_SHM208A_Sub036] (puzzle: Sensor for hsa-mir-208a) | 36.5 |
| UCUUGGUUUUUGCUCGUUUUUUGUGUUGAACAUGAGGAUCACCCAUGUAUUGUACGGUCCAAUUUGGUGGUAGUCCG [JMF 68] (puzzle: Sensor for hsa-mir-208a) | 40.4 |
| UUUAGUUGCGGGCAGGAUAUGUAUUAAAAUACAUGAGGAUCACCCAUGUGAGAUCGAAAAGAUCUACAGAAGGGCCAAUCGCGAC [Laonerce - 24] (puzzle: Same State 2) | 14 |
| AUAAAACAUGAGGAUCACCCAUGUCAACAAAGUCGAGGAUAUGGGCUAAUAAAAUAAGAACCAGAAGGCGAAUAAU [salish99_ss1_r3_027] (puzzle: Same State 1) | 26.2 |
